biological target: T1, murine CTLA4-Fc (R&D Systems) (mouse, UniProt P09793 36-162, limits assumed); test: SPR, Biacore T100, 25 C; CTLA4-Fc captured on anti-human IgG-Fc, mutein as analyte; 1:1 Langmuir fit
T1 construct: Bought fusion protein; also called mouse CTLA4; not shown: It was captured by an anti-human IgG-Fc antibody
Listing: koff of selected binders
# output: bare number, implied unit s⁻¹

[[record]]
binder = "hNGALM4 (designed binder) QDSTSDLIPAPPLSKVPLQQNFQDNQFHGKWYVVGLAGNRILRDDQHPMPMYATIYELKGDKSYNVTSVISSHKKCLYPIATFVPGSQPGEFTLGNIKSYGDKWSYLVRVVSTDYNQYAVVFFKHADSNYESFSITIYGRTKELASELKENFIRFSKSLGLPENHIVFPVPIDQCIDG"
measurementtype = "koff"
measuredvalue = 0.000129

[[record]]
binder = "hNGALM2 (designed binder) QDSTSDLIPAPPLSKVPLQQNFQDNQFHGKWYVVGLAGNRLLRDDQHPMDMYATIYELKGDKSYNVTSVISSHKKCLYPIATFVPGSQPGEFTLGNIKSYGDKWSYLVRVVSTDYNQYAVVFFKHADTNYESFSITIYGRTKELASELKENFIRFSKSLGLPENHIVFPVPIDQCIDGSAWSHPQFEK"
measurementtype = "koff"
measuredvalue = 0.000907

[[record]]
binder = "hNGALM6 (designed binder) QDSTSDLIPAPPLSKVPLQQNFQDNQFHGKWYVVGLAGNRILRSDQHPMPMYATIYELKGDKSYNVTSVISSHKKCLYSIATFVPGSQPGEFTLGNIKSYGDKESYLVRVVSTDYNQYAVVFFKYASDNDESFSITIYGRTKELASELKENFIRFSKSLGLPENHIVFPVPIDQCIDGSAWSHPQFEK"
measurementtype = "koff"
measuredvalue = 4.21


Exam item: Give its koff value. Item: hNGALM5 (designed binder) QDSTSDLIPAPPLSKVPLQQNFQDNQFHGKWYVVGLAGNRILRSDQHPMRMYATIYELKGDKSYNVTSVISSHKKCLYTIATFVPGSQPGEFTLGNIKSYGDKWSYLVRVVSTDYNQYAVVFFKHADTNYESFSITIYGRTKELASELKENFIRFSKSLGLPENHIVFPVPIDQCIDGSAWSHPQFEK
Marked response: 0.000261
